Tested on: HEK-293T
measurement.notes: Multiplex assay against HEK293T
Type: toxicity, cell-based
condition.context: human, 24 h, 10 µM, compound concentration 10 uM, number of replicates 2
Consider the following compounds; for each one, report its Population Fragmented Nuclei (%).
One number for each entry, in %.

Some solved cases for reference:
> print(dat)
                              sample.smiles  target.desc  readout.units  assay.value
1  CC(C)c1c(NC(=O)Nc2ccc(Cl)cc2)c(=O)n(-c2ccccc2)n1C     HEK-293T              %            6
2  Cn1cc(-c2ccc(-c3cncc(Cl)c3N3CCC4(CCNC4=O)CC3)cc2)cn1     HEK-293T              %            5
3     O=C1NC(=NCc2cccs2)SC1=Cc1ccc2ncccc2c1     HEK-293T              %            2

// for each compound in input: emit Population Fragmented Nuclei (%)
1. COc1ccc(CC[C@@H](OC(=O)[C@@H]2CCCCN2C(=O)[C@H](c2cc(OC)c(OC)c(OC)c2)C2CCCCC2)c2cccc(OCCN3CCOCC3)c2)cc1OC
2. CC(C)N1CCN(Cc2cnc(-c3cc(-c4cccc5[nH]ccc45)cc4[nH]ncc34)o2)CC1

1: 2; 2: 3
